Entries and their binding signal
- TESTED SYSTEM: T1, UNK ZnF1-3 (human, UniProt Q9C0B0 31-174)
- T1 sequence: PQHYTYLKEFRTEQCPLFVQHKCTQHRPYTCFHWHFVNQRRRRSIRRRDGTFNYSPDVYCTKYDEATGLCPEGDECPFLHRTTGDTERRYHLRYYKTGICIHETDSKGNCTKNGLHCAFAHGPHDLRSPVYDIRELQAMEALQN
- EXPERIMENTAL DETAILS: nsRBNS (natural sequence RNA bind-n-seq); RBNS binding buffer (assumed for nsRBNS): 25 mM Tris pH 7.5, 150 mM KCl, 3 mM MgCl2, 0.01% Triton X-100, 500 ug/ml BSA, 20 U/ml SUPERase-In, 4 C; UNK is unkempt and MSI1 is Musashi-1; names of the RNAs are library labels; protein concentration not given here; high values mean tight binding
In all, about 24,000 sequences were measured (“enrichment r”: median about 0.99, highest 2% from about 3.7 on). This is one part of a sample in which the highest values are shown more often than they occur.
Numbers only; they are read as enrichment R.

{"BINDER": "chr4:6323411:6323412:-_ENSMUSG00000028245_ENSMUST00000029910|mus_hu|FALSE|FALSE (ssRNA) RNA: GGGAGUUCUACAGUCCGACGAUCAGAAAAAUAUUUUUAAUGUAGAAAAGAUGAAUAGCUGUAAUGAAAUACAAACCGUUCCUAUACACAGUAAACUUACUAAGAACUGCUAAUCCUUCUCCAGGUUCUUAGAAUCUGGGUACACAACAGAGGAUUGAGCAUCA", "RESULT VALUE": 1.02}

**Q:** Given chr12:42180722:42180723:-_ENSMUSG00000036295_ENSMUST00000043884|mus_hu|mus_mus_mus_hu_True|58_108 (ssRNA) RNA: GGGAGUUCUACAGUCCGACGAUCCUGUAGGAGCAGAAUCUGUGUGUUAGCUGGCAAUCUGGCUGGGAAAGUUAAAAGCCCUAAAUCAUUACAAUCCACUGUAGAUGCUUCCAUAUAAAUGGAUCUGGGUGUAAACCAAGGCCUCAACAGAGGAUUGAGCAUCA , state its recorded binding signal.
**A:** 1.07

**Q:** Given chr12:16048344:16048345:+_ENSG00000023734_ENST00000419869|hu_hu|hu_hu_hu_mus_True|8_18 (ssRNA) RNA: GGGAGUUCUACAGUCCGACGAUCAGAUCGUCCAUAAGUAAUAACCAAAAUCUCUCCUUCAGGAAUAUACUCCAUGCUGCUAACAGACAUAUUAAAAUUCAGAGAUUUCACUUCUGUCAUAGUAGCAUGAUCCCAAAGCCGAACCAACAGAGGAUUGAGCAUCA , state its recorded binding signal.
**A:** 0.71
